Provenance of the data: patent US20240158475A1

Please provide measured koff for the entries that follow.
- study_target: DN-III quality control recombinant protein (produced by Fapon Biotech InC.) (dengue virus)
- test_description: BLI, AMC sensor, antibody captured
Record the result as a number with its unit.

For record Mutation 1-30 (antibody, V domains shown) VH: EVQLQQSGTELVRPGALVKLSCKASGFNIKDYYVHWVKQRPRQGLEWIGWIDPENGKTIYDPKFQDKASITSDTSTNTAYLQLRSLTSEDTAVYYCVTAYFRFVYWGQGTLVTVSA VL: QIVLTQSPAIMSAFPGERVTMTCSASSSVRYMYWHQQKPGSSPRLLIYDTSNIASGVPVRFSGSGSGTSYSLTISRDEAMDAATYYCQQWSSYPRTFGGGTKLEIKR the listed koff is 3.56e-05 s⁻¹

For record Mutation 1-20 (antibody, V domains shown) VH: EVQLQQSGTELVRPGALVKLSCKASGFNIKDYYVHWVKQRPRQGLEWIGWIDPENGKTLYDPKFQDKASITSDTSTNTAYLQLRSLTSEDTAVYYCVSAYYRFVYWGQGTLVTVSA VL: QIVLTQSPAIMSAFPGERVTMTCSASSSVRYMYWHQQKPGSSPRLLIYDTSNVASGVPVRFSGSGSGTSYSLTISRDEAMDAATYYCQQWSSTPRTFGGGTKLEIKR the listed koff is 1.66e-05 s⁻¹

For record Mutation 1-39 (antibody, V domains shown) VH: EVQLQQSGTELVRPGALVKLSCKASGFNIKDYYVHWVKQRPRQGLEWIGWIDPENGKTIYDPKFQDKASITSDTSTNTAYLQLRSLTSEDTAVYYCVTAYFRFVYWGQGTLVTVSA VL: QIVLTQSPAIMSAFPGERVTMTCSASTSVRYMYWHQQKPGSSPRLLIYDTSNLASGVPVRFSGSGSGTSYSLTISRDEAMDAATYYCQQWSSFPRTFGGGTKLEIKR the listed koff is 3.75e-05 s⁻¹
